Where do these numbers come from? They come from a melting point compilation (Tetko et al.; mined from patent text by program, amines drawn as free bases though some values may be those of a salt).

READOUT_LABEL: melting point

Examples with answers:
COMPOUND	melting point
O=C(CC1=CC(OC2CCCCO2)CC1=O)Oc1ccc2ccccc2c1 (stereo not given)	75 °C
CCOC(=O)C1=C(CCl)NC(C)=C(C(=O)OC)C1c1cccc(C(F)(F)F)c1 (stereo not given)	115 to 116 °C
CSc1c(-n2ccnc2)c(-c2ccc(Cl)c(Cl)c2)nn1C	88 to 90 °C
CCCCCCCN(CCCCCSc1nc2ccc([N+](=O)[O-])cc2[nH]1)C(=O)Nc1ccc(F)cc1F	120 to 122 °C
CCC1C(=O)Nc2cc3[nH]c(-c4ccc(NC(C)=O)cc4OC)nc3cc21 (stereo not given)	245 to 249 °C

Task: Which melting point value belongs to `O=C(O)CON=c1c2nccc3c(Cl)ccc(c32)n2cccc12` ?
Output: 202 °C

Task: Which melting point value belongs to `NC(=O)NN=Cc1c(-c2ccccc2)nn2ccccc12` ?
Output: 221 to 222 °C

Task: Which melting point value belongs to CC(C)c1cccc(C(C)C)c1NC(=O)NC1COc2ccccc2C1 (stereo not given) ?
Output: 186 to 188 °C

Task: Which melting point value belongs to Cc1c(C)c2c(c(C)c1N)CC(C)(CN1CCC(c3ccncc3)CC1)O2 (stereo not given) ?
Output: 126 to 128 °C

Task: Which melting point value belongs to `CCCC(=O)Nc1cc(/C=C/C(=O)OC)n(C)c1` ?
Output: 109 to 110 °C

###

Entries and their melting point

Examples with answers:
MOLECULE	READOUT_LABEL	VAL
CCCCCCOc1ccc(O)c2cc(C)c(C)cc12	melting point	72 to 73 °C
OCc1ccc(-c2ccc(-c3cn([C@H]4CN5CCC4CC5)nn3)s2)cc1	melting point	253 °C
Fc1cc2c(Cl)ncnc2cn1	melting point	75 to 76 °C
CN(C)CCc1nc2cccnc2[nH]1	melting point	109 to 112 °C
COCc1cccc(-c2nn(C(C)c3oc4ccccc4c(=O)c3-c3cccc(F)c3)c3ncnc(N)c23)c1 (stereo unspecified)	melting point	167 to 170 °C

Task: Which melting point value belongs to `Cc1nc2cnccc2n1-c1ccc(O)cc1F` ?
Output: 294 °C

Task: Which melting point value belongs to CC(O)CN1N=CCCC1c1ccc(Cl)c(Cl)c1 (stereo unspecified) ?
Output: 75 to 77 °C

Task: Which melting point value belongs to `Cc1nc2cccc3n(CC4CCN(S(=O)(=O)C(F)(F)F)CC4)c(=O)c1n23` ?
Output: 150 to 152 °C

Task: Which melting point value belongs to `CCOc1ccccc1-c1nc2c(C)nn(C)c2c(=O)[nH]1` ?
Output: 201 to 204 °C

Task: Which melting point value belongs to `CSc1ccc(-c2nc3[nH]nc(N)c3c(=O)n2-c2ccc(C)c(C)c2)cc1` ?
Output: 263 to 266 °C

Task: Which melting point value belongs to `CC(=O)NNC1=Nc2sc(Cl)cc2C(c2ccccn2)=NC1` ?
Output: 193 to 195 °C

###

Entries and their melting point

COMPOUND	melting point
O=C1C=CC(OCc2ccccc2)N1S(=O)(=O)c1ccccc1 (stereo not given)	56 to 58 °C
CC(C)n1nc(-c2sc(C(=O)NC3CC3)nc2-c2ccccc2F)ccc1=O	134 to 135 °C

Task: Which melting point value belongs to `Cc1ccc(C(=O)Oc2c(N3CCCC3)c(=O)n(-c3ccccc3)c3ncccc23)cc1` ?
Output: 216 to 217 °C

Task: Which melting point value belongs to CCCCC(C#N)c1cccc(C(=O)c2cc3cc(C(=O)OC)sc3s2)c1 (stereo not given) ?
Output: 131 °C

Task: Which melting point value belongs to `CC(C)c1c(OCCNC(=O)OC(C)(C)C)noc1-c1cccs1` ?
Output: 94 to 95 °C

Task: Which melting point value belongs to `C[C@H](NC(=O)c1c(N)cccc1F)C(=O)O` ?
Output: 194 to 198 °C

Task: Which melting point value belongs to `CC(=O)Nc1nc(C)c(S(=O)(=O)NC(C)(CO)CO)s1` ?
Output: 201 °C

###

Entries and their melting point

COMPOUND	melting point
N#Cc1nn(-c2c(Cl)cc(C(F)(F)F)cc2Cl)c(N)c1C#N	221 to 222 °C
O=[N+]([O-])c1c(O)c(Cl)cc(F)c1-c1ncc(C(F)(F)F)cc1Cl	67 to 72 °C
CCOC(=O)c1sc(Br)c(Br)c1Cl	58 to 63 °C
COc1cc(OC2CCN(c3c(O)c(=O)c3=O)CC2)ccc1CC(=O)N1CCN(c2ccccc2C)CC1C(N)=O (stereo unspecified)	144 to 148 °C
COc1cccc2c1CC(C(=O)O)N2S(=O)(=O)c1ccc(-c2ccc(F)cc2Cl)cc1 (stereo unspecified)	137 to 138 °C
COc1c(C(C)(C)C)cc(C=O)c(O)c1Br	123 to 124 °C

Task: Which melting point value belongs to CCN1C=C(C(=O)O)C(=O)CC1c1ccc2c(c1)OCO2 (stereo unspecified) ?
Output: 173 to 175 °C

Task: Which melting point value belongs to `Cc1csc2c1-n1cccc1C2=NO` ?
Output: 198 °C

Task: Which melting point value belongs to `N#Cc1coc2ccc3ccc(O)cc3c2c1=O` ?
Output: 289 to 292 °C

Task: Which melting point value belongs to CC(=O)Nc1cccc2c1C1(COc3cc4c(cc31)OCCO4)C(=O)N2C (stereo unspecified) ?
Output: 182 to 184 °C

Task: Which melting point value belongs to `COc1cc(C(=O)O)c(OC)cc1C` ?
Output: 120 °C

###

Entries and their melting point

Task: Which melting point value belongs to `Cc1cccc2c1N(C(=O)OC(C)(C)C)Cc1c(-c3noc(C4CC4)n3)ncn1-2` ?
Output: 189 to 192 °C

Task: Which melting point value belongs to `O=C(N[C@H]1CCCNC1=O)c1ccc(F)cc1F` ?
Output: 140 to 141 °C

Task: Which melting point value belongs to COc1cc2c(cc1OC)-c1c(O)c(OC)cc3c1C(C2)CN(C)C3 (stereo not given) ?
Output: 196 to 210 °C

Task: Which melting point value belongs to `CCCOc1cccc(-c2ccnc(Nc3cc(OC)c(OC)c(OC)c3)n2)c1` ?
Output: 107 °C

Task: Which melting point value belongs to `CC(C)Oc1ncc(OC(=O)C2(C)CC2)cc1Cl` ?
Output: 116 to 117 °C

###

READOUT_LABEL: melting point

Task: Which melting point value belongs to `O=C(O)c1ccc(-c2ccnc(-c3cc(-c4ccc(C(=O)O)s4)ccn3)c2)s1` ?
Output: > 300 °C

Task: Which melting point value belongs to `CS(=O)(=O)Nc1ccc(SCCCCl)cc1` ?
Output: 61 to 63 °C

Task: Which melting point value belongs to `CNc1ncnc2c1c(=O)n(C)c(=O)n2C` ?
Output: 178 to 179 °C

Task: Which melting point value belongs to `CCc1nc2c(cnn2CC)c(NC2CCOCC2)c1CNC(=O)c1cccc(C(=O)NCc2ccc(F)c(-c3cccc(CN4CCN(CC)CC4)c3)c2)c1` ?
Output: 155 to 158 °C

Task: Which melting point value belongs to `Cn1c(=O)n(CCC[C@@H](NS(=O)(=O)c2ccc(-c3ccccc3)cc2)C(=O)O)c(=O)c2ccccc21` ?
Output: 222 to 224 °C

Task: Which melting point value belongs to `CCOC(=O)c1cc2c(cn1)[nH]c1ccc(S(=O)(=O)N(C)C)cc12` ?
Output: 310 to 311 °C

Task: Which melting point value belongs to `O=C1CCCc2ccc(OCc3ccc(Cl)c(Cl)c3)cc21` ?
Output: 122 to 123 °C

Task: Which melting point value belongs to `CC(C)Oc1ccc2c(O)c(C(=O)NCCO)nc(Cl)c2c1` ?
Output: 102 to 104 °C

Task: Which melting point value belongs to `CCCCCCCCCCCCCCCCCCOc1cc(OCCCOc2ccccc2OCc2ccccc2)cc(C(=O)OCc2ccccc2)c1` ?
Output: 49 to 50 °C

###

Entries and their melting point

Examples with answers:
COMPOUND	VAL
CCCc1nc2c(N)nc3cc(-c4ccc(NC(C)=O)cc4)ccc3c2s1	252 to 255 °C
CN1CC(=O)Nc2cccc(I)c2C1=O	214 to 217 °C
COc1cccc2c1C1(COc3cc4c(cc31)OCO4)C(=O)N2Cc1ccc(C(F)(F)F)o1 (centres undefined)	149 to 153 °C
O=C(NCC12CC3CC(CC(C3)C1)C2)c1cc(CCCNCCCO)ncc1Cl	84 to 85 °C

Task: Which melting point value belongs to `O=S(=O)(NCC(F)(F)F)c1ccc(Nc2nc(OCC3CCCCC3)c3nc[nH]c3n2)cc1` ?
Output: 223 to 224 °C

Task: Which melting point value belongs to `CCCCCCCCCCCCSC(=O)CS(=O)(=O)Nc1c(OC)cc(OC)cc1OC` ?
Output: 90 to 93 °C

Task: Which melting point value belongs to `CCOc1ccc2c(c1)c(-c1ccc3c(c1)OCO3)c(C(=O)OC)c(=O)n2Cc1ccccc1OC` ?
Output: 157 to 158 °C

Task: Which melting point value belongs to `CC(=O)Nc1ccc(C(=O)c2cc(-c3ccc(NC(C)=O)cc3)c(N3CCOCC3)s2)cc1` ?
Output: 152 °C

Task: Which melting point value belongs to `COC(=O)CCCOc1cc([N+](=O)[O-])c(CO)cc1OC` ?
Output: 100 °C
